Assay: Pharmacokinetics in Sprague-Dawley rats (single dose i.v. and p.o.)
Assay type: in vivo, male Sprague-Dawley rats
Settings: male, Sprague-Dawley, rat, in vivo, iv; rats, 50 mg/kg i.v. bolus, MEAN; read-out: T1/2 (converted)
QUANTITY: half-life (h)
One number for each entry, in h.

Incoming: So what's the measured half-life for this one? Cn1c(COP(=O)(NCCBr)NCCBr)cnc1[N+](=O)[O-]
Outgoing: 1.32

* * *

Experiment: Pharmacokinetics of TH302 in Beagle Dogs (Table 6)
Assay type: in vivo
Details: male, dog, plasma, intravenous, Males, 4 mg/kg, read-out: Vss
QUANTITY: Vd (L/kg)
Numbers only, in L/kg.

Incoming: Param item = Cn1c(COP(=O)(NCCBr)NCCBr)cnc1[N+](=O)[O-] ; retrieve measured Vd.
Outgoing: 0.822

* * *

Assay: Pharmacokinetics of TH302 in Beagle Dogs (Table 6)
Type: in vivo
Conditions: male, dog, plasma, intravenous, Males, 16 mg/kg
QUANTITY: Tmax (min)
One number for each entry, in min.

Incoming: I would be grateful if you could share the reported Tmax for Cn1c(COP(=O)(NCCBr)NCCBr)cnc1[N+](=O)[O-] .
Outgoing: 31.5

* * *

Experiment: Pharmacokinetics in Sprague-Dawley rats (single dose i.v. and p.o.)
Format: in vivo, male Sprague-Dawley rats
Conditions: male, Sprague-Dawley, rat, plasma, iv, 50 mg/kg, rats, 50 mg/kg i.v. bolus, individual animals; read-out: Vss
QUANTITY: Vd (L/kg)
One number for each entry, in L/kg.

Incoming: Could you tell me which Vd is on file for Cn1c(COP(=O)(NCCBr)NCCBr)cnc1[N+](=O)[O-] [TH302] ?
Outgoing: 1.63

* * *

Assay: Pharmacokinetics of TH302 in Beagle Dogs (Table 6)
Type: in vivo
Details: male, dog, plasma, intravenous, Males, 32 mg/kg
QUANTITY: clearance (mL/min/kg)
One number for each entry, in mL/min/kg.

Incoming: Consider the compound Cn1c(COP(=O)(NCCBr)NCCBr)cnc1[N+](=O)[O-] and give its measured clearance.
Outgoing: 48.5

* * *

Assay: Pharmacokinetics in cynomolgus monkeys (20 mg/kg i.v.)
Type: in vivo
Details: cynomolgus monkey, plasma, iv, 20 mg/kg, cynomolgus monkeys, individual animals, read-out: MRT
QUANTITY: MRT (min)
Answers are plain numbers, in min.

Incoming: Endpoint output: MRT of Cn1c(COP(=O)(NCCBr)NCCBr)cnc1[N+](=O)[O-] . Value?
Outgoing: 28.6

* * *

Assay: Pharmacokinetics in Sprague-Dawley rats (single dose i.v. and p.o.)
Assay type: in vivo, male Sprague-Dawley rats
Conditions: male, Sprague-Dawley, rat, plasma, iv, rats, i.v. dose 1-50 mg/kg, range of means; read-out: mean Vss
QUANTITY: Vd

Incoming: Quick one: Vd for Cn1c(COP(=O)(NCCBr)NCCBr)cnc1[N+](=O)[O-] ?
Outgoing: 1.67 to 5.09 L/kg

* * *

Assay: Pharmacokinetics after repeated administration (Q7D×3) to rats
Type: in vivo
Conditions: rat, plasma, iv; TH302 in rats, 12.5 mg/kg Q7D×3, Day 15; read-out: Vss
QUANTITY: Vd (L/kg)
Answers are plain numbers, in L/kg.

Incoming: Data request, read-out Vd, for Cn1c(COP(=O)(NCCBr)NCCBr)cnc1[N+](=O)[O-]
Outgoing: 8.71

* * *

Assay: Pharmacokinetics in Sprague-Dawley rats (single dose i.v. and p.o.)
Assay type: in vivo, male Sprague-Dawley rats
Details: male, Sprague-Dawley, rat, plasma, iv, 5 mg/kg, rats, 5 mg/kg i.v. bolus, MEAN
QUANTITY: AUC(0-inf) (ng·h/mL)
Numbers only, in ng·h/mL.

Incoming: Suppose we examine the compound Cn1c(COP(=O)(NCCBr)NCCBr)cnc1[N+](=O)[O-] ; what AUC(0-inf) value has been reported?
Outgoing: 826

* * *

Test: Pharmacokinetics after repeated administration (Q7D×3) to dogs
Type: in vivo
Conditions: dog, plasma, intravenous; dogs, 8 mg/kg dose of TH302; read-out: drug exposure (AUC of TH302)
QUANTITY: AUC at 15 day

Incoming: What measured AUC at 15 day goes with Cn1c(COP(=O)(NCCBr)NCCBr)cnc1[N+](=O)[O-] [TH302] ?
Outgoing: ~1.91 µg·h/mL

* * *

Test: Pharmacokinetics in Sprague-Dawley rats (single dose i.v. and p.o.)
Type: in vivo, male Sprague-Dawley rats
Conditions: male, Sprague-Dawley, rat, plasma, iv, 50 mg/kg, rats, 50 mg/kg i.v. bolus, individual animals; read-out: Cmax
Method: Pharmacokinetic studies were performed in male CD-1 (50 mg/kg i.p. or orally (p.o.)) or female nude mice (50 mg/kg i.v. or i.p.), male Sprague-Dawley rats (1, 5, 20 and 50 mg/kg i.v. and 100 mg/kg, p.o.), beagle dogs (20 mg/kg, i.v.) and cynomologus monkeys (20 mg/kg i.v.). Plasma TH302 concentrations were analyzed using a LC/MS method and the pharmacokinetic parameters computed using a noncompartmental method. Interspecies scaling was performed according to standard methods. […]
QUANTITY: Cmax (ng/mL)
Numbers only, in ng/mL.

Incoming: Return reported Cmax; argument: Cn1c(COP(=O)(NCCBr)NCCBr)cnc1[N+](=O)[O-] [TH302]
Outgoing: 37200

* * *

Experiment: Pharmacokinetics of TH302 in Beagle Dogs (Table 6)
Format: in vivo
Conditions: female, dog, plasma, intravenous, Females, 8 mg/kg, read-out: Vss
QUANTITY: Vd (L/kg)
Give bare numbers, in L/kg.

Incoming: Reported Vd, compound Cn1c(COP(=O)(NCCBr)NCCBr)cnc1[N+](=O)[O-] : ____
Outgoing: 0.974

* * *

Test: Pharmacokinetics of TH302 in Beagle Dogs (Table 6)
Assay type: in vivo
Conditions: male, dog, plasma, intravenous, Males, 4 mg/kg
QUANTITY: Cmax

Incoming: # query: Cmax of entry Cn1c(COP(=O)(NCCBr)NCCBr)cnc1[N+](=O)[O-] [TH302]
Outgoing: 4160 ng/mL

* * *

Assay: Pharmacokinetics of TH302 in Beagle Dogs (Table 6)
Type: in vivo
Conditions: male, dog, plasma, intravenous, Males, 32 mg/kg
QUANTITY: Cmax
A complete answer gives the number followed by the unit.

Incoming: Look up Cmax: Cn1c(COP(=O)(NCCBr)NCCBr)cnc1[N+](=O)[O-]
Outgoing: 23000 ng/mL

* * *

Assay: Pharmacokinetics of TH302 in Beagle Dogs (Table 6)
Type: in vivo
Details: female, dog, plasma, intravenous, Females, 4 mg/kg, read-out: Vss
QUANTITY: Vd

Incoming: // returns reported Vd for input Cn1c(COP(=O)(NCCBr)NCCBr)cnc1[N+](=O)[O-] [TH302]
Outgoing: 0.785 L/kg

* * *

Experiment: Pharmacokinetics in Sprague-Dawley rats (single dose i.v. and p.o.)
Assay type: in vivo, male Sprague-Dawley rats
Settings: male, Sprague-Dawley, rat, plasma, iv, 50 mg/kg, rats, 50 mg/kg i.v. bolus, individual animals
QUANTITY: AUC(0-inf) (ng·h/mL)
One number for each entry, in ng·h/mL.

Incoming: Entry Cn1c(COP(=O)(NCCBr)NCCBr)cnc1[N+](=O)[O-] has what AUC(0-inf)?
Outgoing: 8830

* * *

Assay: Pharmacokinetics in Sprague-Dawley rats (single dose i.v. and p.o.)
Type: in vivo, male Sprague-Dawley rats
Conditions: male, Sprague-Dawley, rat, plasma, iv, rats, i.v. dose 1-50 mg/kg, range of means; read-out: mean terminal plasma t1/2
QUANTITY: half-life

Incoming: Could you share which half-life value was measured for Cn1c(COP(=O)(NCCBr)NCCBr)cnc1[N+](=O)[O-] [TH302] ?
Outgoing: 1.32 to 4.37 h

* * *

Experiment: Pharmacokinetics after repeated administration (Q7D×3) to dogs
Format: in vivo
Conditions: dog, in vivo; TH302 in dogs, 8 mg/kg Q7D×3, Day 15; read-out: Half-Life (converted)
QUANTITY: half-life (min)
Give bare numbers, in min.

Incoming: Bench note: what half-life did Cn1c(COP(=O)(NCCBr)NCCBr)cnc1[N+](=O)[O-] [TH302] show?
Outgoing: 15.2

* * *

Assay: Pharmacokinetics in Sprague-Dawley rats (single dose i.v. and p.o.)
Format: in vivo, male Sprague-Dawley rats
Conditions: male, Sprague-Dawley, rat, plasma, iv, 20 mg/kg, rats, 20 mg/kg i.v. bolus, individual animals; read-out: Vss
QUANTITY: Vd (L/kg)
One number for each entry, in L/kg.

Incoming: Given the entry Cn1c(COP(=O)(NCCBr)NCCBr)cnc1[N+](=O)[O-] , report its measured Vd.
Outgoing: 2.89
